System: A549
Test: Cytotoxicity against human A549 cells after 48 hrs by MTT assay
Type: functional, cell-based
Conditions: A549, 48 h
Exercise: for every item that follows, state its recorded IC50.
State the answer as a number, implicitly in µM.

input: Notebook entry, A549 assay: IC50 of Cc1cccc(-n2ncc3c(=O)oc4ccccc4c32)c1 = ?
output: 160

input: Item: Cc1cccc(-n2nc(C)c3c(=O)oc4ccccc4c32)c1
output: 43

input: Item: Cc1nn(-c2ccccc2)c2c1c(=O)oc1ccccc12
output: 119

input: Item: COc1ccc2oc(=O)c3c(C)nn(-c4ccccc4)c3c2c1
output: 150

input: Item: O=c1oc2ccccc2c2c1cnn2-c1ccccc1
output: 175

input: Item: COC(=O)Nc1nc2cc(C(=O)c3cccs3)ccc2[nH]1 [NOCODAZOLE]
output: 2.31

input: Item: CCOC(=O)c1c(-c2cc3cc(OC)ccc3oc2=O)nn(-c2ccccc2)c1C(=O)OCC
output: 35

input: Item: CCOC(=O)c1c(-c2c(Cl)c3cc(C)ccc3oc2=O)nn(-c2ccccc2)c1C(=O)OCC
output: 108

input: Item: CCOC(=O)c1c(-c2cc3ccc(OC)cc3oc2=O)nn(-c2cccc(C)c2)c1C(=O)OCC
output: 171

input: Item: CCOC(=O)c1c(-c2cc3cc4c(cc3oc2=O)OC(C)(C)CC4)nn(-c2cccc(C)c2)c1C(=O)OCC
output: 175

input: Item: CCOC(=O)c1c(-c2cc3c(ccc4ccccc43)oc2=O)nn(-c2cccc(Cl)c2)c1C(=O)OCC
output: 165

input: Item: CCOC(=O)c1c(-c2cc3ccccc3oc2=O)nn(-c2ccc(OC)cc2)c1C(=O)OCC
output: 86

input: Item: CCOC(=O)c1c(-c2cc3c(ccc4ccccc43)oc2=O)nn(-c2ccccc2)c1C(=O)OCC
output: 136

input: Item: CCOC(=O)c1c(-c2cc3ccc(OC)cc3oc2=O)nn(-c2cccc(Cl)c2)c1C(=O)OCC
output: 221
